Measured values drawn from patent US12624012B2 for this set.

Tested on: NCI-H520
Assay: In vitro anti-tumor activity evaluation test (CCK-8), NCI-H520
Assay type: cell-based, human
Conditions: Homo sapiens; NCI-H520; 72 h; read-out: IC50 against different tumor cell lines
outcome-measure: pIC50
For clarity, pIC50 is expressed as the negative log10 of concentration in mol/L.

Solved entries:
compound="C=C[C@]1(C)CC[C@@H](C(=C)CN2CCCC(COC(=O)CCCC(=O)OCCOc3no[n+]([O-])c3S(=O)(=O)c3ccccc3)C2)C[C@H]1C(=C)CCl (some centres unmarked)" system_tested=NCI-H520 reported_result=5.92
compound=C=C[C@]1(C)CC[C@@H](C(=C)CN2CCN(CCOC(=O)CCCC(=O)OCC#CCOc3no[n+]([O-])c3S(=O)(=O)c3ccccc3)CC2)C[C@H]1C(=C)CCl system_tested=NCI-H520 reported_result=5.97
compound=C=C[C@]1(C)CC[C@@H](C(=C)CN2CCN(CCOC(=O)CCCC(=O)OCCOc3no[n+]([O-])c3S(=O)(=O)c3ccccc3)CC2)C[C@H]1C(=C)CCl system_tested=NCI-H520 reported_result=6.02
compound=C=C[C@]1(C)CC[C@@H](C(=C)CN(C)CCOC(=O)CCCC(=O)OCCOc2no[n+]([O-])c2S(=O)(=O)c2ccccc2)C[C@H]1C(=C)CCl system_tested=NCI-H520 reported_result=6.11

Consider the record given below.
Quick check: pIC50 of C=C[C@]1(C)CC[C@@H](C(=C)CN2CCC(COC(=O)CCC(=O)OCC#CCOc3no[n+]([O-])c3S(=O)(=O)c3ccccc3)CC2)C[C@H]1C(=C)CCl ?
5.98

* * *

System: NCI-H520
Test: In vitro anti-tumor activity evaluation test (CCK-8), NCI-H520
Assay type: cell-based, human
Conditions: Homo sapiens; NCI-H520; 72 h; read-out: IC50 against different tumor cell lines
Overview of reported IC50 across a group of compounds:
Answer with a number only, understood to be in nM.

Solved entries:
compound="C=C[C@]1(C)CC[C@@H](C(=C)CN2CCC(COC(=O)CCCC(=O)OCC#CCOc3no[n+]([O-])c3S(=O)(=O)c3ccccc3)CC2)C[C@H]1C(=C)CCl [Example 16]" outcome_measure=IC50 reported_result=1050
compound="C=C[C@]1(C)CC[C@@H](C(=C)CN2CC[C@H](OC(=O)CCCC(=O)OCCOc3no[n+]([O-])c3S(=O)(=O)c3ccccc3)C2)C[C@H]1C(=C)CCl [Example 10]" outcome_measure=IC50 reported_result=848

Consider the record given below.
Quick check: IC50 of C=C[C@]1(C)CC[C@@H](C(=C)CN(C)CCOC(=O)CCCC(=O)OCC#CCOc2no[n+]([O-])c2S(=O)(=O)c2ccccc2)C[C@H]1C(=C)CCl [Example 4] ?
719

* * *

Assay: In vitro NO release test (incubation with L-cysteine, OD at 550 nm)
Details: 10 min; 100 μM solution with cysteine solution, 37° C.
Overview of reported NO-release concentrations across a group of compounds:
Answer with a number only, understood to be in µM.

Solved entries:
compound=C=C[C@]1(C)CC[C@@H](C(=C)CN2CC[C@H](OC(=O)CCC(=O)OCC#CCOc3no[n+]([O-])c3S(=O)(=O)c3ccccc3)C2)C[C@H]1C(=C)CCl outcome_measure="NO-release concentrations" reported_result=10.79
compound=C=C[C@]1(C)CC[C@@H](C(=C)CN(C)CCOC(=O)CCC(=O)OCCOc2no[n+]([O-])c2S(=O)(=O)c2ccccc2)C[C@H]1C(=C)CCl outcome_measure="NO-release concentrations" reported_result=2.31
compound=C=C[C@]1(C)CC[C@@H](C(=C)CN2CCC(COC(=O)CCC(=O)OCC#CCOc3no[n+]([O-])c3S(=O)(=O)c3ccccc3)CC2)C[C@H]1C(=C)CCl outcome_measure="NO-release concentrations" reported_result=10.07
compound=C=C[C@]1(C)CC[C@@H](C(=C)CN2CCN(CCOC(=O)CCC(=O)OCC#CCOc3no[n+]([O-])c3S(=O)(=O)c3ccccc3)CC2)C[C@H]1C(=C)CCl outcome_measure="NO-release concentrations" reported_result=5.95

Quick check: NO-release concentrations of C=C[C@]1(C)CC[C@@H](C(=C)CN2CC[C@H](OC(=O)CCC(=O)OCCOc3no[n+]([O-])c3S(=O)(=O)c3ccccc3)C2)C[C@H]1C(=C)CCl ?
3.90

Quick check: NO-release concentrations of C=C[C@]1(C)CC[C@@H](C(=C)CN2CCCC(COC(=O)CCC(=O)OCCOc3no[n+]([O-])c3S(=O)(=O)c3ccccc3)C2)C[C@H]1C(=C)CCl (some centres unmarked) ?
5.66

Quick check: NO-release concentrations of C=C[C@]1(C)CC[C@@H](C(=C)CN2CCN(CCOC(=O)CCC(=O)OCCOc3no[n+]([O-])c3S(=O)(=O)c3ccccc3)CC2)C[C@H]1C(=C)CCl ?
0.41

Quick check: NO-release concentrations of C=C[C@]1(C)CC[C@@H](C(=C)CN(C)CCOC(=O)CCCC(=O)OCC#CCOc2no[n+]([O-])c2S(=O)(=O)c2ccccc2)C[C@H]1C(=C)CCl ?
14.80

Quick check: NO-release concentrations of C=C[C@]1(C)CC[C@@H](C(=C)CN(CCOC(=O)CCC(=O)OCCOc2no[n+]([O-])c2S(=O)(=O)c2ccccc2)C(C)C)C[C@H]1C(=C)CCl ?
41.61

Quick check: NO-release concentrations of C=C[C@]1(C)CC[C@@H](C(=C)CN2CCC(COC(=O)CCCC(=O)OCC#CCOc3no[n+]([O-])c3S(=O)(=O)c3ccccc3)CC2)C[C@H]1C(=C)CCl ?
18.93

Quick check: NO-release concentrations of C=C[C@]1(C)CC[C@@H](C(=C)CN2CCCC(COC(=O)CCC(=O)OCC#CCOc3no[n+]([O-])c3S(=O)(=O)c3ccccc3)C2)C[C@H]1C(=C)CCl (some centres unmarked) ?
15.87

* * *

Experiment: In vitro NO release test (incubation with L-cysteine, OD at 550 nm)
Settings: 5 min; 100 μM solution with cysteine solution, 37° C.
Overview of reported NO-release concentrations across a group of molecules:
Answer with a number only, understood to be in µM.

molecule=C=C[C@]1(C)CC[C@@H](C(=C)CN(C)CCOC(=O)CCCC(=O)OCCOc2no[n+]([O-])c2S(=O)(=O)c2ccccc2)C[C@H]1C(=C)CCl outcome_measure="NO-release concentrations" reported_result=2.10
molecule="C=C[C@]1(C)CC[C@@H](C(=C)CN2CCC(OC(=O)CCCC(=O)OCC#CCOc3no[n+]([O-])c3S(=O)(=O)c3ccccc3)C2)C[C@H]1C(=C)CCl (stereo partly drawn)" outcome_measure="NO-release concentrations" reported_result=13.20

Consider the record given below.
Quick check: NO-release concentrations of C=C[C@]1(C)CC[C@@H](C(=C)CN2CCC(COC(=O)CCCC(=O)OCC#CCOc3no[n+]([O-])c3S(=O)(=O)c3ccccc3)CC2)C[C@H]1C(=C)CCl ?
16.99

* * *

Assay: In vitro NO release test (incubation with L-cysteine, OD at 550 nm)
Details: 10 min; 100 μM solution with cysteine solution, 37° C.
outcome-measure: NO-release concentrations (µM)
Answer with a number only, understood to be in µM.

Solved entries:
compound="C=C[C@]1(C)CC[C@@H](C(=C)CN(CCOC(=O)CCCC(=O)OCC#CCOc2no[n+]([O-])c2S(=O)(=O)c2ccccc2)C(C)C)C[C@H]1C(=C)CCl [Example 8]" reported_result=12.34
compound="C=C[C@]1(C)CC[C@@H](C(=C)CN(C)CCOC(=O)CCCC(=O)OCCOc2no[n+]([O-])c2S(=O)(=O)c2ccccc2)C[C@H]1C(=C)CCl [Example 2]" reported_result=2.40
compound="C=C[C@]1(C)CC[C@@H](C(=C)CN2CCCC(COC(=O)CCCC(=O)OCCOc3no[n+]([O-])c3S(=O)(=O)c3ccccc3)C2)C[C@H]1C(=C)CCl (some centres unmarked) [Example 18]" reported_result=10.18
compound="C=C[C@]1(C)CC[C@@H](C(=C)CN(C)CCOC(=O)CCC(=O)OCC#CCOc2no[n+]([O-])c2S(=O)(=O)c2ccccc2)C[C@H]1C(=C)CCl [Example 3]" reported_result=12.02
compound="C=C[C@]1(C)CC[C@@H](C(=C)CN2CCC(OC(=O)CCCC(=O)OCC#CCOc3no[n+]([O-])c3S(=O)(=O)c3ccccc3)C2)C[C@H]1C(=C)CCl (some centres unmarked) [Example 12]" reported_result=16.04

Quick check: NO-release concentrations of C=C[C@]1(C)CC[C@@H](C(=C)CN2CCCC(COC(=O)CCCC(=O)OCC#CCOc3no[n+]([O-])c3S(=O)(=O)c3ccccc3)C2)C[C@H]1C(=C)CCl (some centres unmarked) [Example 20] ?
17.57

Quick check: NO-release concentrations of C=C[C@]1(C)CC[C@@H](C(=C)CN2CC[C@H](OC(=O)CCCC(=O)OCCOc3no[n+]([O-])c3S(=O)(=O)c3ccccc3)C2)C[C@H]1C(=C)CCl [Example 10] ?
9.44

Quick check: NO-release concentrations of C=C[C@]1(C)CC[C@@H](C(=C)CN2CCN(CCOC(=O)CCCC(=O)OCC#CCOc3no[n+]([O-])c3S(=O)(=O)c3ccccc3)CC2)C[C@H]1C(=C)CCl [Example 24] ?
11.37

Quick check: NO-release concentrations of C=C[C@]1(C)CC[C@@H](C(=C)CN2CCC(COC(=O)CCCC(=O)OCCOc3no[n+]([O-])c3S(=O)(=O)c3ccccc3)CC2)C[C@H]1C(=C)CCl [Example 14] ?
13.53

Quick check: NO-release concentrations of C=C[C@]1(C)CC[C@@H](C(=C)CN2CCN(CCOC(=O)CCCC(=O)OCCOc3no[n+]([O-])c3S(=O)(=O)c3ccccc3)CC2)C[C@H]1C(=C)CCl [Example 22] ?
0.90

Quick check: NO-release concentrations of C=C[C@]1(C)CC[C@@H](C(=C)CN(CCOC(=O)CCCC(=O)OCCOc2no[n+]([O-])c2S(=O)(=O)c2ccccc2)C(C)C)C[C@H]1C(=C)CCl [Example 6] ?
5.87
